Measured Ki values are reported for all entries that follow.
Biological target: human SERT (HEK293 membranes) (Homo sapiens, UniProt P31645)
Sequence (P31645 whole entry): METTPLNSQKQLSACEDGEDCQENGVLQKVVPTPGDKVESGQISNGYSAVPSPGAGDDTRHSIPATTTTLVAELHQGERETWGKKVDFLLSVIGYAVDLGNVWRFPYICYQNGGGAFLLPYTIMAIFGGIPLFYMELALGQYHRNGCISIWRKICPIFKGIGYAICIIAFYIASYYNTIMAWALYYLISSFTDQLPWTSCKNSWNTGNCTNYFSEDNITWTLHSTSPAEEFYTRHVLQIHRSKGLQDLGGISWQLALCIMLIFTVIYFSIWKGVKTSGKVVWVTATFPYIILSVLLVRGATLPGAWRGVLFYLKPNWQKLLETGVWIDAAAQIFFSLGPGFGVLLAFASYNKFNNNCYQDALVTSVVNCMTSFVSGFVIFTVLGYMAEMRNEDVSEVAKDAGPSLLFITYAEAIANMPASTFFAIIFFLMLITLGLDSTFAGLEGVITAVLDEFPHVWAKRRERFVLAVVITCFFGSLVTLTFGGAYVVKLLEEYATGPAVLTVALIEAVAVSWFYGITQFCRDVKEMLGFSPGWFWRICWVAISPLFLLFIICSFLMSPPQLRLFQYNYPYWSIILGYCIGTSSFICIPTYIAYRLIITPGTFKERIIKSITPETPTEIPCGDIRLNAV
ASSAY ENDPOINT: Ki (nM)

MOLECULE: FC(F)(F)c1cccc([C@H]2CN3CCC[C@H]3c3cc(OCCCN4CCCCC4)ccc32)c1 (relative stereo)
SYSTEM UNDER TEST: human SERT (HEK293 membranes) (Homo sapiens, UniProt P31645)
UNIT: nM
EXPERIMENTAL VALUE: 9
--
MOLECULE: COc1ccc(OC)c([C@H]2CN3CCC[C@H]3c3cc(OCCCN4CCCCC4)ccc32)c1 (relative stereo)
SYSTEM UNDER TEST: human SERT (HEK293 membranes) (Homo sapiens, UniProt P31645)
UNIT: nM
EXPERIMENTAL VALUE: 43
--
MOLECULE: N#Cc1ccc([C@@H]2CN3CCC[C@H]3c3cc(OCCCN4CCCCC4)ccc32)cc1 (relative stereo) [Example 41A]
SYSTEM UNDER TEST: human SERT (HEK293 membranes) (Homo sapiens, UniProt P31645)
UNIT: nM
EXPERIMENTAL VALUE: 59
--
MOLECULE: Oc1ccc([C@H]2CN3CCC[C@H]3c3cc(OCCCN4CCCCC4)ccc32)cc1 (relative stereo)
SYSTEM UNDER TEST: human SERT (HEK293 membranes) (Homo sapiens, UniProt P31645)
UNIT: nM
EXPERIMENTAL VALUE: 58

Where these numbers come from: patent US8273762B2
